Assay Target: ALDH1A1 (Homo sapiens, UniProt P00352)
Sequence (P00352 whole entry): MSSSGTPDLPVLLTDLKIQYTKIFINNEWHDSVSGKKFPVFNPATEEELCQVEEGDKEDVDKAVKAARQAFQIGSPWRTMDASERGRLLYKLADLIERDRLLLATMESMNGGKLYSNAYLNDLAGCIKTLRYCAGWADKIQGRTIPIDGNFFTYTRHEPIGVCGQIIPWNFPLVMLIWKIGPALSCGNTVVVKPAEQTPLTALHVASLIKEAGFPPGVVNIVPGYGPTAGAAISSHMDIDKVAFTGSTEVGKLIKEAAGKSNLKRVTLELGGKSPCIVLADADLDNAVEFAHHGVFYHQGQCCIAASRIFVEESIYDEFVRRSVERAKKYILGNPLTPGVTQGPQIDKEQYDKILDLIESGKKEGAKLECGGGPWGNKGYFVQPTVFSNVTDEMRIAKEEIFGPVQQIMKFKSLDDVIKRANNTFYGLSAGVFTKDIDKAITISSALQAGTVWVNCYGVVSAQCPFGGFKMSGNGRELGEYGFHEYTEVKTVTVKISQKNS
Method: Cell-based enzyme assay, retinoic acid production in ALDH1A1/H1299 cells
Experimental Setup: cell-based
Quantity: EC50 (µM)
Report only the number, with the unit µM understood.

CCS(=O)(=O)c1ccc(-c2nn(-c3ccccc3)cc2C(=O)Nc2cccc(F)c2)cc1
1.3

We now examine a further molecule.
## Input I am curious: what EC50 value has been reported for CC(=O)c1ccc(-c2nn(-c3ccc(C#N)cc3)cc2C(=O)Nc2cccc(F)c2)cc1 ?
## Output 0.28

----------
Assay Target: ALDH1A2 (Homo sapiens, UniProt O94788)
Sequence (O94788 1-518): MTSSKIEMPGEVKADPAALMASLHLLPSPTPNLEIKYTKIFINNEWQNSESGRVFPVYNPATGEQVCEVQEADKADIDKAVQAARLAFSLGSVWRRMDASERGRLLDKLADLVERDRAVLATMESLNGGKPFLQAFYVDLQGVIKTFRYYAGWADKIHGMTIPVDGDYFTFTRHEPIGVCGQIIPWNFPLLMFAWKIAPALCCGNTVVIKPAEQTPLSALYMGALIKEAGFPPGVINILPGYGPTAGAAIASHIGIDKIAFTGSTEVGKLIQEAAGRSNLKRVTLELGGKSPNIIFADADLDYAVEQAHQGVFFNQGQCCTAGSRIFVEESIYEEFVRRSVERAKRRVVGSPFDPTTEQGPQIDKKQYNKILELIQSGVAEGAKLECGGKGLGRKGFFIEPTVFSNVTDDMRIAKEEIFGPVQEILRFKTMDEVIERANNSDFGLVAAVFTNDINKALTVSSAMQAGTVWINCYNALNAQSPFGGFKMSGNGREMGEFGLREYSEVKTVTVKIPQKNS
Method: Cell-based enzyme assay, retinoic acid production in ALDH1A2/H1299 cells
Experimental Setup: cell-based
Quantity: EC50 (µM)
Return type: number; implicit unit µM.

Some compounds with recorded EC50:
N#Cc1ccc(-n2cc(C(=O)Nc3cccc(F)c3)c(-c3ccc(NC(=O)C(Cl)Cl)cc3)n2)cc1 [Compound 316a]
0.013
CCOC(=O)c1cn(-c2ccccc2)nc1-c1ccc(S(C)(=O)=O)cc1
0.317
CS(=O)(=O)c1ccc(-c2nn(-c3ccc(C(=O)NO)cc3)cc2C(=O)Nc2cccc(F)c2)cc1
0.04

## Input Value lookup for EC50; key = CS(=O)(=O)c1ccc(-c2nn(-c3cccc(C#N)c3)cc2C(=O)Nc2ccc(F)c(F)c2)cc1
## Output 0.045

## Input Would you mind doing CS(=O)(=O)c1ccc(-c2nn(-c3ccc(OC(F)(F)F)cc3)cc2C(=O)Nc2cccc(F)c2)cc1 as well?
## Output 0.051

## Input What do you get for CS(=O)(=O)c1ccc(-c2nn(-c3ccccc3)cc2C(=O)Nc2cccc(O)c2)cc1 ?
## Output 0.12

----------
Assay Target: ALDH1A1 (Homo sapiens, UniProt P00352)
Method: Cell-based enzyme assay, retinoic acid production in ALDH1A1/H1299 cells
Experimental Setup: cell-based
Description: ALDH1A1 cDNA clone was purchased transfection-ready, and ALDH1A2 full-length cDNA was subcloned into pcDNA3, a mammalian expression vector. ALDH1A1 and ALDH1A2 were transfected into H1299 cells (CRL5803, ATCC) using Lipofectamine 3000 (Invitrogen) following the manufacturer's instructions. Stably transfected cells were selected with G418 (1.2 mg/ml) and referred to as ALDH1A1/H1299 and ALDH1A2/H1299. For the cell-based enzyme assays, […]
Consider the cut-off 20 µM. If the recorded EC50 is strictly smaller, the label is true; if not, the label is false.

Reference set (5 entries):
CS(=O)(=O)c1ccc(-c2nn(-c3cccc(C#N)c3)cc2C(=O)Nc2cccc(F)c2)cc1
true
CS(=O)(=O)c1ccc(-c2nn(-c3ccccc3)cc2C(=O)Nc2cccc(Cl)c2)cc1
false
O=Cc1cn(-c2ccccc2)nc1-c1ccc(O)cc1
true
CS(=O)(=O)c1ccc(-c2nn(-c3ccc(C(=O)NO)cc3)cc2C(=O)Nc2cccc(F)c2)cc1
true
COC(=O)c1ccc(-n2cc(C(=O)Nc3cccc(F)c3)c(-c3ccc(S(C)(=O)=O)cc3)n2)cc1
true

## Input Record CS(=O)(=O)c1ccc(-c2nn(-c3ccc(C(N)=O)cc3)cc2C(=O)Nc2cccc(F)c2)cc1 : is its EC50 strictly below 20 µM?
## Output true

## Input Next: CN(C)C(=O)c1ccc(-n2cc(C(=O)Nc3cccc(F)c3)c(-c3ccc(S(C)(=O)=O)cc3)n2)cc1
## Output false

## Input Thanks! And CS(=O)(=O)c1ccc(-c2nn(-c3ccc(OC(F)(F)F)cc3)cc2C(=O)Nc2cccc(F)c2)cc1 ?
## Output false

Measured values drawn from patent US11548875B2 for this set.
